Target: CYP3A4 (Homo sapiens (Human))
Sequence (P08684 whole entry): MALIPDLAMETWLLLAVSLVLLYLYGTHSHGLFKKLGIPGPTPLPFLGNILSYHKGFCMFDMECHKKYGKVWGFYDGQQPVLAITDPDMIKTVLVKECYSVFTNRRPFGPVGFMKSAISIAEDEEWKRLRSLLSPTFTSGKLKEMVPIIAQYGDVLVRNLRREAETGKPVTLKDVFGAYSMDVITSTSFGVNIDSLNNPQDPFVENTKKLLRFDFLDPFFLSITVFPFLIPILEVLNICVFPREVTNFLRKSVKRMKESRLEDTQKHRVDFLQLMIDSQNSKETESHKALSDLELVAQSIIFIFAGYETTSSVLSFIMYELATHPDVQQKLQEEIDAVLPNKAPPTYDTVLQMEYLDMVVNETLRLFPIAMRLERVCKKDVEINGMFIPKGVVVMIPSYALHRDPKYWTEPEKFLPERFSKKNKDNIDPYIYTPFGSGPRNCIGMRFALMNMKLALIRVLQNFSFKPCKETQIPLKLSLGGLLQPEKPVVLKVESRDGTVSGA
Assay: Fluorometric CYP450 enzyme inhibition assay, CYP3A4
Assay type: biochemical
Details: human recombinant CYP3A4, BFC substrate; read-out: CYP450 IC50 3A4
pIC50: −log10 of the molar value.
We begin with a simple list: items and their reported pIC50.

Input: What is its pIC50 for CYP3A4 (Homo sapiens (Human))? Entry: C[C@H](Cn1cnc2c(N)ncnc21)OCP(=O)(O)OCCCCCCCCCCCCCCCCCC#CC(F)(F)F.N [NP-PD-102]
Output: < 4.70

Input: What about C[C@H](Cn1cnc2c(N)ncnc21)OCP(=O)(O)OCCCOCCCCCCCCCCCCCCCC(F)(F)F.N [NP-PD-158] ?
Output: < 4.70

Input: What about C[C@H](Cn1cnc2c(N)ncnc21)OCP(=O)(O)OCCCCCCCCCCCCCCCCCCCC(F)(F)F.N [NP-PD-105] ?
Output: < 4.70

Input: What about C#CCCCCCCCCCCCCCCOCCCOP(=O)(O)CO[C@H](C)Cn1cnc2c(N)ncnc21.N [MD-5-72] ?
Output: < 4.70

Input: What about C#CCCCCCCCCCCCCCCCCCCOP(=O)(O)CO[C@H](C)Cn1cnc2c(N)ncnc21.N [Compound B1-1-065] ?
Output: < 4.30

Input: What about CCCCSCCCCCCCCCCCCCCCOP(=O)(O)CO[C@H](C)Cn1cnc2c(N)ncnc21 [MD-1-221] ?
Output: < 4.70
